Reported PBM binding z-score values are given for each entry in this list.
# System: PPARg DBDmut:RXRa IVT, anti-PPARg (DBD mutation: PPARg1 K132A/R137A, NR concentration 270 nM, RXRa partner concentration 90 nM)
# test.details: PBM binding z-score (relative to random genomic background probes); higher = stronger binding; sequences stand for … in GC…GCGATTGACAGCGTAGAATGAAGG

residues: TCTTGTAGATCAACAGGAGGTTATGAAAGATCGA
PBM binding z-score: 0.881
//
residues: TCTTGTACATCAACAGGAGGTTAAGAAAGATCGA
PBM binding z-score: 1.32
//
residues: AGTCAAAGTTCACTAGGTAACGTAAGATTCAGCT
PBM binding z-score: 1.07
//
residues: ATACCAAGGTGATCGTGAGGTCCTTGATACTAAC
PBM binding z-score: 0.0116
//
residues: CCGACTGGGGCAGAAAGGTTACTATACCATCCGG
PBM binding z-score: -0.665
//
residues: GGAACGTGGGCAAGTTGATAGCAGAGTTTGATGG
PBM binding z-score: -0.762
//
residues: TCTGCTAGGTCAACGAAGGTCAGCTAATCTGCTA
PBM binding z-score: 0.834
//
residues: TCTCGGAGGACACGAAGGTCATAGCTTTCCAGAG
PBM binding z-score: -0.131
//
residues: TAGCCTGGGTCATTGGGCCAGTATAGTACGCATC
PBM binding z-score: 0.337
//
residues: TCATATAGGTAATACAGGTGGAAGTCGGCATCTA
PBM binding z-score: 1.36
//
residues: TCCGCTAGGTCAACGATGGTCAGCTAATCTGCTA
PBM binding z-score: -0.291
//
residues: CGTCCAAGGTCAATGCTAGGTCAGTCAAAGCATT
PBM binding z-score: 0.558
//
residues: CGTCAAAGTTCAAGGTAACGAAACAGAAAGCAGC
PBM binding z-score: 0.604
//
residues: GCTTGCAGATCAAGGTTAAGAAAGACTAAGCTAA
PBM binding z-score: -0.556
//
residues: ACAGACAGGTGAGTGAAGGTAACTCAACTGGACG
PBM binding z-score: -0.777
//
residues: AGAACGAGGGCACGCTGAGTTGATAGGAGAGTAG
PBM binding z-score: 0.653
//
residues: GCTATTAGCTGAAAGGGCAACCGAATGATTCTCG
PBM binding z-score: -0.309
//
residues: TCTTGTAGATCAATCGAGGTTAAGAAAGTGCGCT
PBM binding z-score: 0.666
//
residues: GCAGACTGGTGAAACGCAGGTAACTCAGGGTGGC
PBM binding z-score: -0.431
//
residues: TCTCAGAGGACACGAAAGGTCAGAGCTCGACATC
PBM binding z-score: -0.124
//
residues: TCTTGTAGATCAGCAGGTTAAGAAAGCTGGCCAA
PBM binding z-score: 0.15
//
residues: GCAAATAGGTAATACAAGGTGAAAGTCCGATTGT
PBM binding z-score: 0.642
//
residues: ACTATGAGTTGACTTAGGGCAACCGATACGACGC
PBM binding z-score: 0.38
//
residues: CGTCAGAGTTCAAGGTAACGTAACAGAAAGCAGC
PBM binding z-score: -0.0239
//
residues: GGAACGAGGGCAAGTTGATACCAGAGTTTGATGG
PBM binding z-score: -0.214
//
residues: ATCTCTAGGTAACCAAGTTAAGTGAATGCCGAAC
PBM binding z-score: 0.758
//
residues: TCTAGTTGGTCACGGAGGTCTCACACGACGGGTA
PBM binding z-score: 0.65
//
residues: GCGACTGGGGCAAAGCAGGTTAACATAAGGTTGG
PBM binding z-score: -0.747
//
residues: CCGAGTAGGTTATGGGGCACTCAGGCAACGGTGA
PBM binding z-score: -0.555
//
residues: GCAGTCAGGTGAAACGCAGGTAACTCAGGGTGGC
PBM binding z-score: -0.763
//
residues: CCTGCTAGGTCATAGTCAGCTAATCTACAGTATG
PBM binding z-score: 0.51
//
residues: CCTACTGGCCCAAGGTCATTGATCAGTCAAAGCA
PBM binding z-score: -0.998
//
residues: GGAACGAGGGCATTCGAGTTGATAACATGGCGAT
PBM binding z-score: 0.243
//
residues: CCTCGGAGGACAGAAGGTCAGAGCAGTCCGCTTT
PBM binding z-score: -1.6
//
residues: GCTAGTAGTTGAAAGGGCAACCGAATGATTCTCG
PBM binding z-score: -0.638
//
residues: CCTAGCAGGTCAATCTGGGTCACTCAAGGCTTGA
PBM binding z-score: 1.08
//
residues: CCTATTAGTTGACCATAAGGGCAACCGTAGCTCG
PBM binding z-score: 0.408
//
residues: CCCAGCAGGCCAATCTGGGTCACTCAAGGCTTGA
PBM binding z-score: -0.484
//
residues: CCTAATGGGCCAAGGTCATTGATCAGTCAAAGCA
PBM binding z-score: -0.175
//
residues: ATATGTAGGTTATGGGGTCATTCAGTTTGCGCAT
PBM binding z-score: 1.83
//
residues: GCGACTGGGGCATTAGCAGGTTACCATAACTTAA
PBM binding z-score: -0.21
//
residues: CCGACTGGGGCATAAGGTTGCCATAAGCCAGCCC
PBM binding z-score: -0.622
//
residues: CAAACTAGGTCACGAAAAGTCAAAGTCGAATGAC
PBM binding z-score: 4.41
//
residues: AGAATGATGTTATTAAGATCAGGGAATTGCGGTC
PBM binding z-score: 0.648
//
residues: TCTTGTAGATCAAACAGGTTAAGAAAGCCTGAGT
PBM binding z-score: 1.28
//
residues: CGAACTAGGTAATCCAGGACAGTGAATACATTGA
PBM binding z-score: 0.81
//
residues: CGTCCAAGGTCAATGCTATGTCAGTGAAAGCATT
PBM binding z-score: -0.154
//
residues: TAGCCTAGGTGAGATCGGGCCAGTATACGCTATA
PBM binding z-score: -0.934
//
residues: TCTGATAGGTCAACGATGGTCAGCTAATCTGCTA
PBM binding z-score: 0.759
//
residues: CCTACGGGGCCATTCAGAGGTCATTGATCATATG
PBM binding z-score: -1.02
//
residues: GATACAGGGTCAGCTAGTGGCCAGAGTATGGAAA
PBM binding z-score: -0.052

---

Reported PBM binding z-score values are given for each entry in this list.
# Tested on: PPARg:RXRa IVT, anti-PPARg (NR concentration 270 nM, RXRa partner concentration 90 nM)
# test.details: PBM binding z-score (relative to random genomic background probes); higher = stronger binding; sequences stand for … in GC…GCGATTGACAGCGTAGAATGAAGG

residues: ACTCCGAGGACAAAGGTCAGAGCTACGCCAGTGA
assayed.system: PPARg:RXRa IVT, anti-PPARg (NR concentration 270 nM, RXRa partner concentration 90 nM)
PBM binding z-score: 4.05
--
residues: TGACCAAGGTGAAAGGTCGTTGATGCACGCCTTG
assayed.system: PPARg:RXRa IVT, anti-PPARg (NR concentration 270 nM, RXRa partner concentration 90 nM)
PBM binding z-score: 4.8
--
residues: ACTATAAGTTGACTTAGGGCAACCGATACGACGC
assayed.system: PPARg:RXRa IVT, anti-PPARg (NR concentration 270 nM, RXRa partner concentration 90 nM)
PBM binding z-score: 0.419
--
residues: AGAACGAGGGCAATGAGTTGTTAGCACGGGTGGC
assayed.system: PPARg:RXRa IVT, anti-PPARg (NR concentration 270 nM, RXRa partner concentration 90 nM)
PBM binding z-score: 2.66
--
residues: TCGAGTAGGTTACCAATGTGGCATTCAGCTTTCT
assayed.system: PPARg:RXRa IVT, anti-PPARg (NR concentration 270 nM, RXRa partner concentration 90 nM)
PBM binding z-score: 2.82
--
residues: CCTTACGCGTCACTGACAGGTTATAGCATTTGGA
assayed.system: PPARg:RXRa IVT, anti-PPARg (NR concentration 270 nM, RXRa partner concentration 90 nM)
PBM binding z-score: -0.176

---

# Test system: VDR:RXRa (NR concentration 270 nM, RXRa partner concentration 90 nM)
# test.details: PBM binding z-score (relative to random genomic background probes); higher = stronger binding; sequences stand for … in GC…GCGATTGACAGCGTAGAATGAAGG
Binary classification by PBM binding z-score, with 0.3 as an inclusive lower bound for Fulfilled; all other cases are Not fulfilled.

residues: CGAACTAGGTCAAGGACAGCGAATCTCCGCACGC
discrete.label: Fulfilled

residues: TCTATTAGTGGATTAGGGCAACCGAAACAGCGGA
discrete.label: Fulfilled

residues: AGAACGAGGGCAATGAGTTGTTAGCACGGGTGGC
discrete.label: Fulfilled

residues: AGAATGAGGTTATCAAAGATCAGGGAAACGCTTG
discrete.label: Fulfilled

residues: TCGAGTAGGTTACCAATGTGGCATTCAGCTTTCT
discrete.label: Not fulfilled

residues: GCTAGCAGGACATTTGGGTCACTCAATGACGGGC
discrete.label: Fulfilled

residues: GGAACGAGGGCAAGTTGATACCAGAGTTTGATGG
discrete.label: Fulfilled

residues: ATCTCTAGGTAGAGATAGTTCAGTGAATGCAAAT
discrete.label: Not fulfilled

residues: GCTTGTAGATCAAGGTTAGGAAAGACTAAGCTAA
discrete.label: Not fulfilled

residues: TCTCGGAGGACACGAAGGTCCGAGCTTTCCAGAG
discrete.label: Not fulfilled

residues: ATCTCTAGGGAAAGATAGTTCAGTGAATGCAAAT
discrete.label: Not fulfilled

residues: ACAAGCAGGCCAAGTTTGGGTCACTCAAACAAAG
discrete.label: Fulfilled

residues: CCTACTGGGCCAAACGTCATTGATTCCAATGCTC
discrete.label: Not fulfilled

residues: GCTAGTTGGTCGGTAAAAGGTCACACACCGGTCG
discrete.label: Fulfilled

residues: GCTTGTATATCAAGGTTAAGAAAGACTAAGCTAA
discrete.label: Fulfilled

residues: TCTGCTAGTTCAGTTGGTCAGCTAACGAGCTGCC
discrete.label: Not fulfilled

residues: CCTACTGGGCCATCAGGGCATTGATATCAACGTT
discrete.label: Not fulfilled

residues: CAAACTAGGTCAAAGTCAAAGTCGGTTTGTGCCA
discrete.label: Fulfilled

residues: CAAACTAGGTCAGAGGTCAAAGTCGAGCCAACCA
discrete.label: Fulfilled

residues: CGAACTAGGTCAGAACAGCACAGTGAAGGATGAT
discrete.label: Not fulfilled

residues: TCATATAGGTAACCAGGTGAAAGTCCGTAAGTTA
discrete.label: Fulfilled

residues: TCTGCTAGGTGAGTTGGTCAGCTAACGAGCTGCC
discrete.label: Not fulfilled

residues: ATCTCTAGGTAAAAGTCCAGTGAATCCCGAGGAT
discrete.label: Not fulfilled

residues: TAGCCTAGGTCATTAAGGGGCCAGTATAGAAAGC
discrete.label: Fulfilled

residues: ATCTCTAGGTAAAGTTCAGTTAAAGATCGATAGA
discrete.label: Fulfilled

residues: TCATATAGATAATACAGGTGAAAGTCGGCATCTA
discrete.label: Fulfilled
